# assay-info: Plasma protein binding in female rat assessed as unbound fraction
# Assay type: ADME, cell-free
measured-attribute: fraction unbound

[[record]]
smiles_structure = "NC(=O)c1ccn(-c2cnc(NC[C@]3(c4ncccc4F)C[C@H](F)C3)nc2)c1"
measured_attribute = "fraction unbound"
assay_result = 0.5


###

# assay-info: Efflux ratio of apparent permeability in human Caco-2 cells
# Format: ADME, cell-based
Here the recorded efflux ratio is given for each entry.
measured-attribute: efflux ratio

[[record]]
smiles_structure = "NC(=O)c1cccc(-c2cnc(NC[C@]3(c4ncccc4F)C[C@H](F)C3)nc2)c1"
measured_attribute = "efflux ratio"
assay_result = 1.8

[[record]]
smiles_structure = "CNC(=O)c1cccc(-c2cnc(NC[C@]3(c4ncccc4F)C[C@H](F)C3)nc2)c1"
measured_attribute = "efflux ratio"
assay_result = 10

[[record]]
smiles_structure = "NC(=O)c1ccn(-c2cnc(NC[C@]3(c4ncccc4F)C[C@H](F)C3)nc2)c1"
measured_attribute = "efflux ratio"
assay_result = 3.1

[[record]]
smiles_structure = "C#Cc1cnc2nc(O)n(C(CC)CC)c2n1"
measured_attribute = "efflux ratio"
assay_result = 0.9


// data source = ChEMBL document CHEMBL4842386
